The values you see were collected from PubChem BioAssay AID1996.

APPLIED_CONDITIONS: buffer; pH 7.4; 200.0 µM
Please respond with reported solubility kinetic for every item in the list.

Use these answered entries as a reference point.
| COMPOUND | ENDPOINT_NAME | OBSERVED_MEASUREMENT |
| --- | --- | --- |
| CCSS(=O)(=O)c1cccc2cccnc12 | solubility kinetic | > 38 µg/mL |
| O=C(Cc1ccc(F)cc1)NCCc1cnc[nH]1 | solubility kinetic | > 37.1 µg/mL |
| CCOC(=O)c1ccccc1NC(=O)C1CCCO1 (stereo unspecified) | solubility kinetic | > 39.5 µg/mL |
| Cc1c(C(=O)N2CCC(C)CC2)cccc1[N+](=O)[O-] | solubility kinetic | > 39.3 µg/mL |
| COc1ccc(NC(=O)/C=C/C(=O)O)c([N+](=O)[O-])c1 | solubility kinetic | > 39.9 µg/mL |

Shifting focus to the compound that follows.
Query: I am curious: what solubility kinetic value has been reported for CC1CCN(CC(=O)Nc2nccs2)CC1 ?
Response: > 35.9 µg/mL

* * *

APPLIED_CONDITIONS: buffer; pH 7.4; 200.0 µM
ENDPOINT_NAME: log10 of solubility kinetic (log10 of the value in µg/mL)
Values reflect log10 of reported solubility kinetic (µg/mL).

A selection of reference data follows.
| COMPOUND | log10 of solubility kinetic |
| --- | --- |
| COC(Cn1cc(C)c(=O)[nH]c1=O)OC | 1.48 |
| Cc1sc2ncnc(SCC(=O)NC(C)C(C)C)c2c1C (configuration not stated) | 0.66 |
| CCOc1ccccc1CN1CCN(Cc2ccon2)CC1CCO (configuration not stated) | 1.69 |
| CSc1nsc(SCC(=O)Nc2ccccc2F)n1 | 1.58 |
| Cc1ccc(CC2C(=O)N(c3ccccc3)C(=O)C2C)cc1 (configuration not stated) | 0.88 |

Each compound below has a recorded value; state its log10 of solubility kinetic.
1. CC(NCc1ccccc1O)C12CC3CC(CC(C3)C1)C2.Cl (configuration not stated)
2. CCN1C(=O)/C(=C\N2CCN(C(=O)c3ccco3)CC2)SC1=S
3. O=C(NC1=NCCS1)c1ccc(Cl)cc1
4. CC(=O)N(C)c1ccc(NC(=O)Cc2cccc3ccccc23)cc1
5. Brc1cccc2sc(N3CCCC3)nc12
6. CC12COC3(C(=O)Nc4ccccc4F)CC1CCC32C (configuration not stated)
7. Cc1cnc(C(=O)OCc2c(C)cc(C(C)(C)C)cc2C)cn1

Response:
1. 1.62
2. 0.04
3. 1.06
4. 0.59
5. 0.72
6. 0.96
7. 0.95

Would you mind giving log10 of solubility kinetic for every compound in the list below?
1. CC1CCCN(S(=O)(=O)c2cccc([N+](=O)[O-])c2)C1 (configuration not stated)
2. COc1ccc(-c2cc(C(=O)N3CCCCCC3)no2)cc1
3. CCCCCCCN=C(C)c1ccccc1O
4. NC(=O)Nc1ccc(C(=O)OCC(=O)NC2CCCc3ccccc32)cc1 (configuration not stated)

Response:
1: 1.12; 2: 0.60; 3: 1.14; 4: 1.04

* * *

Consider the following compounds; for each one, report its solubility kinetic.
APPLIED_CONDITIONS: buffer; pH 7.4; 200.0 µM
Give bare numbers, in µg/mL.

Consider the following illustrative entries.
| QUERY_SMILES | MEASUREMENT_UNIT | OBSERVED_MEASUREMENT |
| --- | --- | --- |
| Cc1ccc(S(=O)(=O)CC(=O)Nc2ccc(F)c(F)c2F)cc1 | µg/mL | 4.8 |
| O=C(COC(=O)c1ccccc1Br)Nc1ccc(F)cc1 | µg/mL | 28.7 |
| C=CCn1c(C(C)(C)C)nc2ccccc21 | µg/mL | 24.6 |

From here, focus on the item given below.
Query: Report solubility kinetic for Fc1ccc(CNc2nc(-c3cccnc3)nc3ccccc23)cc1 please.
Response: 5.6

* * *

APPLIED_CONDITIONS: buffer; pH 7.4; 200.0 µM
Please provide measured solubility kinetic for the entries that follow.

| QUERY_SMILES | ENDPOINT_NAME | OBSERVED_MEASUREMENT |
| --- | --- | --- |
| O=c1[nH]c2ccccc2n2c(=S)[nH]nc12 | solubility kinetic | > 32.7 µg/mL |
| NC(=O)c1ccccc1N | solubility kinetic | > 20.4 µg/mL |
| COc1ccc(-n2nc(C)c3sc(C)nc3c2=O)cc1 | solubility kinetic | > 43.1 µg/mL |

Query: Look at this compound and give its reported solubility kinetic. O=C1CSC(=Nc2ccc(Cl)cc2)N1Cc1cccnc1
Response: 8.3 µg/mL

* * *

APPLIED_CONDITIONS: buffer; pH 7.4; 200.0 µM
ENDPOINT_NAME: solubility kinetic

Below are worked cases with known answers.
| COMPOUND | solubility kinetic |
| --- | --- |
| COc1cc(CNCc2ccncc2)cc(OC)c1OC.Cl | > 48.7 µg/mL |
| Cc1ccc(S(=O)(=O)N2CCC3(CC2)OCCO3)c(C)c1 | > 46.7 µg/mL |
| O=C(Nc1ccc(CN2CCOCC2)cc1)c1ccc(F)cc1 | > 47.2 µg/mL |
| CCC(=O)Nc1ccc(-c2ccc(N3CCN(C)CC3)nn2)cc1 | > 48.8 µg/mL |
| O=C(COC(=O)c1cnccn1)c1cccc([N+](=O)[O-])c1 | > 43.1 µg/mL |

For each entry beneath this line, provide reported solubility kinetic.
1. O=C(O)c1ccc(C2SCC(=O)N2Cc2ccco2)cc1 (stereo unspecified)
2. O=C(NCCc1ccc(Cl)cc1)C(=O)c1c[nH]c2ccccc12

Response:
> 45.5 µg/mL
2.1 µg/mL

Hi there! I need solubility kinetic for each item below, if you can.
1. CC(C)(O)C#Cc1ccc(C(=O)NC2CCCCC2)s1
2. CC(=O)Nc1ccc(Cl)c(-c2nc3ncccc3o2)c1
3. CCOc1ccc(NC(=O)c2cccc(NC(=O)c3ccccc3)c2)cc1

Response:
1. > 43.7 µg/mL
2. 41.5 µg/mL
3. 0.8 µg/mL

Query: Would you mind telling me what solubility kinetic value was observed for Nc1cc(Cl)ccc1C(=O)OCC(=O)N1CCCC1 ?
Response: 21.4 µg/mL

* * *

APPLIED_CONDITIONS: buffer; pH 7.4; 200.0 µM
ENDPOINT_NAME: solubility kinetic

| MOLECULE | OBSERVED_MEASUREMENT |
| --- | --- |
| Cc1ccc(NC(=O)N2CCCC(C(=O)O)C2)cc1 (stereo not given) | > 39.3 µg/mL |

List solubility kinetic for every entry below, keeping the order given.
1. O=S(=O)(Nc1ccc2c(c1)OCCO2)c1ccc(F)c(F)c1
2. CCCN(CC1CCCO1)C(=O)CCc1nnc(-c2cc(C)on2)o1 (stereo not given)
3. Cc1ccc(N(CC(=O)NC2CC2)S(=O)(=O)c2ccccc2)c(C)c1
4. COc1ccc(/C(N)=N/O)c(OC)c1

Response:
> 49.1 µg/mL
> 52.3 µg/mL
> 53.8 µg/mL
> 29.4 µg/mL

* * *

APPLIED_CONDITIONS: buffer; pH 7.4; 200.0 µM
ENDPOINT_NAME: solubility kinetic

| COMPOUND | solubility kinetic |
| --- | --- |
| O=C1C2CC(O)CN2C(=S)N1Cc1ccccc1 (centres undefined) | > 39.3 µg/mL |
| Cc1cc(C)nc(/N=C(\N)Nc2ccc(OCCC(C)C)cc2)n1 | > 49.1 µg/mL |

Give me solubility kinetic for each of these compounds, listed below.
1. N[C@H]1CONC1=O
2. CC(C)(C)C(=O)Nc1cccc(-c2ncon2)c1

Response:
1. > 15.3 µg/mL
2. > 36.8 µg/mL

* * *

APPLIED_CONDITIONS: buffer; pH 7.4; 200.0 µM
Record form. Attribute: log10 of solubility kinetic. Fill in for each entry.
All values: base-10 log of solubility kinetic in µg/mL.

# annotated cases, reported log10 of solubility kinetic shown
| COMPOUND | log10 of solubility kinetic |
| --- | --- |
| O=C(Nc1cc(N2CCOCC2)ncn1)NC1(C(F)(F)F)Oc2ccc(Cl)cc2O1 (stereo not given) | 1.82 |
| O=c1c2ccccc2ncn1-c1cccc(Br)c1 | 0.74 |

I need log10 of solubility kinetic for every entry listed below, if you could help.
1. COC(=O)c1cc(CSc2nc3ccccc3c(=O)n2C)oc1C
2. Cc1cc(C)nc(NC(=S)NC(=O)c2ccccc2)n1
3. O=C(Cc1ccccc1F)OCN1C(=O)c2ccccc2C1=O
4. Cc1ccc2nc(-c3ccccc3)cc(C(=O)N3CC(C)OC(C)C3)c2c1 (stereo not given)
5. COc1ccc(NC(=O)C2CC2)cc1OC1CCCC1

Response:
0.64
0.76
1.67
1.69
1.20

# per-item lookup of log10 of solubility kinetic; items listed below
1. O=[N+]([O-])c1cccc(S(=O)(=O)/N=C(/Nc2ccccc2)c2ccccc2)c1
2. Cc1nc(SC(C(N)=O)c2ccccc2)c(C#N)c(C)c1C (stereo not given)

Response:
0.26
0.00
